# System: Pepsin
# Construct: purchased Merck Millipore
# Assay Protocol: Protease stability in simulated gastric fluid (Pepsin-SGF, FaSSGF)
# Type: in vitro ADME
# Test Settings: simulated gastric fluid with pepsin (Pepsin-SGF), 60 min, 1 μM peptide, 37° C., read-out: FaSSGF 60 (min), remaining percent of peptide
Starred links: 1 amine or outer side, 2 acyl side, 3 side chain; linkers in the order of their positions; H or OH if unused. Positions of bridges follow the written chain, without caps; N, C: chain ends. Non-standard residues stand in square brackets, D forms with d. Residues, ends and D or L forms follow the SMILES beside them. *: point of attachment. X3 = CN(CCCCC(=O)N[C@@H](CS[*:2])C(=O)[*:1])[*:3]; X6 = O=C(CCC(=O)[*:3])N[C@@H](CS[*:2])C(=O)[*:1]; Trp(7-Me) = Cc1cccc2c(C[C@H](N)C(=O)O)c[nH]c12; X1 = O=C(CCCCN[*:3])N[C@@H](CS[*:2])C(=O)[*:1]; αMeLys(Me2) = CN(C)CCCC[C@](C)(N)C(=O)O; 2Nal = N[C@@H](Cc1ccc2ccccc2c1)C(=O)O; d2Nal = N[C@H](Cc1ccc2ccccc2c1)C(=O)O; AEF = NCCOc1ccc(C[C@H](N)C(=O)O)cc1; 3Pal = N[C@@H](Cc1cccnc1)C(=O)O; αMeL = CC(C)C[C@](C)(N)C(=O)O; Thp = NC1(C(=O)O)CCOCC1; Me2NCH2CH2 = CN(C)CC*; Aib = CC(C)(N)C(=O)O; Ahx = NCCCCCC(=O)O; Ava = NCCCCC(=O)O; βAla = NCCC(=O)O; Sar = CNCC(=O)O
Endpoint Label: remaining at 1 h, 1 µM (%)
Quick note: give the figure in %, leave out the unit.

Would you please look over these solved cases?
* CC(=O)NCCCC[C@@H]1NC(=O)[C@H](Cc2c[nH]c3c(C)cccc23)NC(=O)[C@@H](NC(C)=O)CCCCNC(=O)[C@@H]2CSSC[C@H](NC1=O)C(=O)N[C@@H](Cc1ccc(OCCN(C)C)cc1)C(=O)N[C@@H](Cc1ccc3ccccc3c1)C(=O)NC1(CCOCC1)C(=O)N[C@H](C(=O)N[C@@H](CC(N)=O)C(=O)N[C@@H](Cc1cccnc1)C(=O)N(C)CC(N)=O)CCCCNC(=O)CCC(=O)N2 [compound 105] (Ac-K[Trp(7-Me)]K(Ac)CY(Me2NCH2CH2)[2Nal][Thp]KN[3Pal][Sar]-NH2; linker 1-4-8 via X6) | 93
* C[C@@H](O)[C@@H]1NC(=O)[C@H](CC(N)=O)NC(=O)[C@@H]2CSSC[C@H](NC(=O)[C@H](CCC(N)=O)NC(=O)[C@H](Cc3c[nH]c4ccccc34)NC1=O)C(=O)N[C@@H](Cc1ccc(OCCN)cc1)C(=O)N[C@@H](Cc1ccc3ccccc3c1)C(=O)NC(C)(C)C(=O)N[C@H](C(=O)N[C@@H](CC(N)=O)C(=O)NCC(N)=O)CC(=O)NCCCCCC(=O)N2 [compound 9] ([Ahx]CNTWQC[AEF][2Nal][Aib]DNG-NH2; disulfide 2-7; lactam N-11) | 2
* CC(=O)NCCCC[C@@H]1NC(=O)[C@H](Cc2c[nH]c3c(C)cccc23)NC(=O)[C@H]([C@@H](C)O)NC(=O)[C@H](CC(N)=O)NC(=O)[C@@H]2CSSC[C@H](NC1=O)C(=O)N[C@@H](Cc1ccc(OCCN(C)C)cc1)C(=O)N[C@@H](Cc1ccc3ccccc3c1)C(=O)NC1(CCOCC1)C(=O)N[C@H](C(=O)N[C@@H](CC(N)=O)C(=O)N[C@@H](Cc1cccnc1)C(N)=O)CCC(=O)NCCCCC(=O)N2 [compound 51] ([Ava]CNT[Trp(7-Me)]K(Ac)CY(Me2NCH2CH2)[2Nal][Thp]EN[3Pal]-NH2; disulfide 2-7; lactam N-11) | 94
* Cc1cccc2c(C[C@@H]3NC(=O)[C@H]([C@@H](C)O)NC(=O)[C@H](CC(N)=O)NC(=O)[C@@H]4CSSC[C@H](NC(=O)[C@H](CCC(N)=O)NC3=O)C(=O)N[C@@H](Cc3ccc(OCCN(C)C)cc3)C(=O)N[C@@H](Cc3ccc5ccccc5c3)C(=O)NC(C)(C)C(=O)N[C@H](C(=O)N[C@@H](CO)C(=O)N[C@@H](Cc3c[nH]cn3)C(N)=O)CCC(=O)NCCCCC(=O)N4)c[nH]c12 [compound 43] ([Ava]CNT[Trp(7-Me)]QCY(Me2NCH2CH2)[2Nal][Aib]ESH-NH2; disulfide 2-7; lactam N-11) | 100
* CC(=O)NCCCC[C@@H]1NC(=O)[C@H](Cc2c[nH]c3ccccc23)NC(=O)[C@@H](NC(C)=O)CCCCNC(=O)[C@@H]2CSSC[C@H](NC1=O)C(=O)N[C@@H](Cc1ccc(OCCN(C)C)cc1)C(=O)N[C@H](Cc1ccc3ccccc3c1)C(=O)N[C@@](C)(CCCCN(C)C)C(=O)N[C@H](C(=O)N[C@@H](CC(N)=O)C(=O)N[C@@H](Cc1cccnc1)C(=O)N(C)CC(N)=O)CCC(=O)NCCCCC(=O)N2 [compound 59] (Ac-KWK(Ac)CY(Me2NCH2CH2)[d2Nal][αMeLys(Me2)]EN[3Pal][Sar]-NH2; linker 1-4-8 via X1) | 77

Input CC(=O)N[C@H]1CCCCNC(=O)[C@@H]2CSSC[C@H](NC(=O)[C@H](CCC(N)=O)NC(=O)[C@H](Cc3c[nH]c4ccccc34)NC1=O)C(=O)N[C@@H](Cc1ccc(OCCN)cc1)C(=O)N[C@@H](Cc1ccc3ccccc3c1)C(=O)N[C@@](C)(CC(C)C)C(=O)N[C@H](C(=O)N[C@@H](CC(N)=O)C(=O)N[C@@H](CC(N)=O)C(N)=O)CCC(=O)N(C)CCCCC(=O)N2 [compound 14] (Ac-KWQC[AEF][2Nal][αMeL]ENN-NH2; linker 1-4-8 via X3) , output reported remaining at 1 h, 1 µM.
72

Input CC(=O)N[C@H]1CCCCNC(=O)[C@@H]2CSSC[C@H](NC(=O)[C@H](CCC(N)=O)NC(=O)[C@H](Cc3c[nH]c4ccccc34)NC1=O)C(=O)N[C@@H](Cc1ccc(OCCN(C)C)cc1)C(=O)N[C@@H](Cc1ccc3ccccc3c1)C(=O)NC1(CCOCC1)C(=O)N[C@H](C(=O)N[C@@H](CC(N)=O)C(=O)NCC(N)=O)CCC(=O)NCCCCC(=O)N2 [compound 30] (Ac-KWQCY(Me2NCH2CH2)[2Nal][Thp]ENG-NH2; linker 1-4-8 via X1) , output reported remaining at 1 h, 1 µM.
87

Input CC(=O)NCCCC[C@@H]1NC(=O)[C@H](Cc2c[nH]c3c(C)cccc23)NC(=O)[C@H]([C@@H](C)O)NC(=O)[C@H](CC(N)=O)NC(=O)[C@@H]2CSSC[C@H](NC1=O)C(=O)N[C@@H](Cc1ccc(OCCN(C)C)cc1)C(=O)N[C@@H](Cc1ccc3ccccc3c1)C(=O)NC(C)(C)C(=O)N[C@H](C(=O)N[C@@H](CC(N)=O)C(=O)N[C@@H](Cc1c[nH]cn1)C(=O)NCCC(N)=O)CCC(=O)NCCCCC(=O)N2 [compound 48] ([Ava]CNT[Trp(7-Me)]K(Ac)CY(Me2NCH2CH2)[2Nal][Aib]ENH[βAla]-NH2; disulfide 2-7; lactam N-11) , output reported remaining at 1 h, 1 µM.
100

====

# Test system: Pancreatin
# Assay Protocol: Protease stability in simulated intestinal fluid (Pancreatin-SIF, FaSSIF)
# Format: in vitro ADME
# Test Settings: 240 min, 1 μM peptide, 37° C., read-out: FaSSIF 240 (min), remaining percent of peptide
Positions of bridges follow the written chain, without caps; N, C: chain ends. Non-standard residues stand in square brackets, D forms with d. Residues, ends and D or L forms follow the SMILES beside them. *: point of attachment. 2Nal = N[C@@H](Cc1ccc2ccccc2c1)C(=O)O; Me2NCH2CH2 = CN(C)CC*; Aib = CC(C)(N)C(=O)O; Ava = NCCCCC(=O)O
Endpoint Label: remaining at 4 h, 1 µM (%)
Quick note: give the figure in %, leave out the unit.

Input CC[C@H](C)[C@H](NC(=O)[C@H](CC(N)=O)NC(=O)[C@H](CC(N)=O)NC(=O)[C@@H]1CCC(=O)NCCCCC(=O)N[C@H]2CSSC[C@H](NC(=O)[C@H](CCC(N)=O)NC(=O)[C@H](Cc3c[nH]c4ccccc34)NC(=O)[C@H]([C@@H](C)O)NC(=O)[C@H](CC(N)=O)NC2=O)C(=O)N[C@@H](Cc2ccc(OCCN(C)C)cc2)C(=O)N[C@@H](Cc2ccc3ccccc3c2)C(=O)NC(C)(C)C(=O)N1)C(N)=O [compound 57] ([Ava]CNTWQCY(Me2NCH2CH2)[2Nal][Aib]ENNI-NH2; disulfide 2-7; lactam N-11) , output reported remaining at 4 h, 1 µM.
52
